Values were extracted from paper PMC6478789.

# study system: SMARCA4 (Homo sapiens)
# Sequence (P51532 1453-1564 limits assumed): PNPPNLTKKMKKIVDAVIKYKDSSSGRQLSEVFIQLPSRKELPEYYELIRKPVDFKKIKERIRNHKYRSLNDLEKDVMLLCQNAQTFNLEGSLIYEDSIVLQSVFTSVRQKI
# assay procedure: BROMOscan ligand-binding assay
# measurement context: KD, SMARCA4
experimental readout: Kd (µM)

>>> reported_measurement("O=C(O)c1ccccc1O")
320

###

# study system: WDR9(2) (Homo sapiens)
# Sequence (Q9NSI6 1313-1418 limits assumed): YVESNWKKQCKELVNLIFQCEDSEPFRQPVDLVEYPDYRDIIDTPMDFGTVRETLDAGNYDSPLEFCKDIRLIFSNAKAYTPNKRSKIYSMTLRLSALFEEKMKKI
# assay procedure: BROMOscan ligand-binding assay
# measurement context: KD (BROMOscan), sheet prints no unit (nM)
experimental readout: Kd

>>> reported_measurement("O=C(C=CN1CC2CC1CN2c1ccccn1)c1ccccc1O (stereo not drawn)")
"> 30000 nM"
>>> reported_measurement("CCCOc1ccn2c(C(C)=O)cc(-c3ccccc3S(C)(=O)=O)c2c1")
"> 30000 nM"
>>> reported_measurement("CCOC(=O)Nc1cc(-c2ccc(C)c(NS(C)(=O)=O)c2)nn2c(C)nnc12")
"> 30000 nM"

###

# study system: BRD3(1,2) (Homo sapiens, UniProt Q15059)
# Sequence (Q15059 24-416 limits assumed): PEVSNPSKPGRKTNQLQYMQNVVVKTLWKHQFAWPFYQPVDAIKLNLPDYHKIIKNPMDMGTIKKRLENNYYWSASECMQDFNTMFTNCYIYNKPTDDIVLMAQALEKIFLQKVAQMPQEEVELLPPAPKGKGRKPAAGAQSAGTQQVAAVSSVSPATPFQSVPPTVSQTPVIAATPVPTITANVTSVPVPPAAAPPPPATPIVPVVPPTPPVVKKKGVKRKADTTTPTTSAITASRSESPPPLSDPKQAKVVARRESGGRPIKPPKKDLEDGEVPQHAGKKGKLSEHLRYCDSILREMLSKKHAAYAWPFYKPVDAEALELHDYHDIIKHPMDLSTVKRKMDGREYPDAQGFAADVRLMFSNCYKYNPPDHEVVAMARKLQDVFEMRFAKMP
# assay procedure: BROMOscan ligand-binding assay
# measurement context: KD, BROMOscan, BRD3(1,2)
experimental readout: Kd

>>> reported_measurement("COc1ccc(CCc2nc3cc(-c4c(C)noc4C)ccc3n2C[C@H](C)N2CCOCC2)cc1Cl")
"1100 nM"

###

# study system: EP300 (Homo sapiens, UniProt Q09472)
# assay procedure: Histone acetyltransferase (HAT) activity assay
# Type: biochemical
# measurement context: 10µM; read-out: HATs Activity (%)
experimental readout: activity at 10 µM (%)

>>> reported_measurement("COc1cc(-c2cn(C)c(=O)c3cnccc23)c(OC)cc1CN(C)C [BI-9564]")
94
>>> reported_measurement("COc1ccc(CCc2nc3cc(-c4c(C)noc4C)ccc3n2C[C@H](C)N2CCOCC2)cc1Cl [SGC-CBP30]")
92
>>> reported_measurement("CC(=O)c1cc(-c2cc(C(=O)NC3CC3)ccc2C)c2ncccn12 [TP-472]")
96
>>> reported_measurement("O=C(C=CN1CC2CC1CN2c1ccccn1)c1ccccc1O (stereo not drawn) [PFI-3]")
97
>>> reported_measurement("CN1C[C@H](Nc2cnn(C)c(=O)c2Br)C[C@H](c2ccccc2)C1 [GSK4027]")
90
>>> reported_measurement("CCC(=O)N1CCOc2c(cc(-c3ccc(OC)c(OC)c3)cc2OCC2CCCN(C)C2)C1 (stereo not drawn) [I-CBP112]")
99

###

# study system: UniProt:Q92794
# Sequence (Q92794 whole entry, species assumed): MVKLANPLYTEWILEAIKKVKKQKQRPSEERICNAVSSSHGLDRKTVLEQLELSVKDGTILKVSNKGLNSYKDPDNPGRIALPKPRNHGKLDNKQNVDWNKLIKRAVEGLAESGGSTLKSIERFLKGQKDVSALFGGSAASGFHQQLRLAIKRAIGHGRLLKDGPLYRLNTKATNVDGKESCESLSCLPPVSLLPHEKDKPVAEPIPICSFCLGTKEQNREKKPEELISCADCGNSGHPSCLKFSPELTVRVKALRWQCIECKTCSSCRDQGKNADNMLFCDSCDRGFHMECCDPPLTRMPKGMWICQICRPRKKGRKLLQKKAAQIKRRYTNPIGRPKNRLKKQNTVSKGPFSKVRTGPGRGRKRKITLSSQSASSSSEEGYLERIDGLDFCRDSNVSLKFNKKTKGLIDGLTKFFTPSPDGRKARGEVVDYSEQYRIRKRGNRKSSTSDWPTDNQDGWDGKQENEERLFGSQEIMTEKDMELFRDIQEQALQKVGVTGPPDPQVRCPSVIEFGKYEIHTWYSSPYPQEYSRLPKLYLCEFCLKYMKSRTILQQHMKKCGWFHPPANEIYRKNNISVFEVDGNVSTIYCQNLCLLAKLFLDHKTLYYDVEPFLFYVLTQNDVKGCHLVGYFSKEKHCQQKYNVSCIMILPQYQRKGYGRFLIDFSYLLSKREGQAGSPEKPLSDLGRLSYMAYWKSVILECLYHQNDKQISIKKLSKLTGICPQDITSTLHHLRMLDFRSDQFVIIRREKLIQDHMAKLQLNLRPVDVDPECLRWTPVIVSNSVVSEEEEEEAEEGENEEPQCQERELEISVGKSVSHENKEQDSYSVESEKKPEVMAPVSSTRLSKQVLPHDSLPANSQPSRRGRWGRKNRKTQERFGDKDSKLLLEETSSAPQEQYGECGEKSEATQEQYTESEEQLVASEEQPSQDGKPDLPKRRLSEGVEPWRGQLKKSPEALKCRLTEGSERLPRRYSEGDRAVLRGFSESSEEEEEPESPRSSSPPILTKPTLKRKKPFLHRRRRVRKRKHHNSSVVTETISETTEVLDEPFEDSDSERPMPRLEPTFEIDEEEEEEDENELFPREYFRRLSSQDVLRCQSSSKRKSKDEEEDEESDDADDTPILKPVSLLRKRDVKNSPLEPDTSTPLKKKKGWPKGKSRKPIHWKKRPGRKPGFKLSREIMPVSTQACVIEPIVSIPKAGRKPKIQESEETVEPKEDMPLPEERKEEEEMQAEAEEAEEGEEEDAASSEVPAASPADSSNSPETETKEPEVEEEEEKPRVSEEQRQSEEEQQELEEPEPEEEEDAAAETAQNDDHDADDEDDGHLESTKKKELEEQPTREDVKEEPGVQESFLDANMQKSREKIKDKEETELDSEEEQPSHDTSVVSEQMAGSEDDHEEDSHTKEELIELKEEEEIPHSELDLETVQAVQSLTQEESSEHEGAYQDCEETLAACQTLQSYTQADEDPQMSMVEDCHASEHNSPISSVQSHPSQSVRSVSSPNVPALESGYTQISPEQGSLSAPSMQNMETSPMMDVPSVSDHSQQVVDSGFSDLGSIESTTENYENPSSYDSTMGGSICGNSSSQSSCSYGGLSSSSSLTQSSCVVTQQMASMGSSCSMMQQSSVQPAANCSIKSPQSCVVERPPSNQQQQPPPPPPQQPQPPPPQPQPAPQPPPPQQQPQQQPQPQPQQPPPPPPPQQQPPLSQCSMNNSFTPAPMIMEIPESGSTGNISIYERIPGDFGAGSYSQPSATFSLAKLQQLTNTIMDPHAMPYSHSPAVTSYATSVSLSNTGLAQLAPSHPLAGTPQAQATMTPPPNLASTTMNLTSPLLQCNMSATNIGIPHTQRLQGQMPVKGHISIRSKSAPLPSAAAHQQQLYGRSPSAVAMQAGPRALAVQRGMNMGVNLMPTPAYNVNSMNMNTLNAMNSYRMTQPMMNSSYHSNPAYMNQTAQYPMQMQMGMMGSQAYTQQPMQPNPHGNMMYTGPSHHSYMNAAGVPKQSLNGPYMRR
# assay procedure: Histone acetyltransferase (HAT) activity assay;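 further: selectivity screen of bromodomain probe compounds across a panel of histone acetyltransferases, read out as enzyme activity in %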
# Assay type: biochemical
# measurement context: 10µM
experimental readout: HATs Activity (%)

>>> reported_measurement("CCn1cc(-c2cccc(C(F)(F)F)c2)c2sc(C(=N)NC3CCS(=O)(=O)CC3)cc2c1=O")
99
>>> reported_measurement("COc1cc(C#N)ccc1S(=O)(=O)Nc1ccc2c(c1)cc(C)c(=O)n2C")
99
>>> reported_measurement("COc1ccccc1C(=O)Nc1cc2c(cc1N1CCNC[C@H]1C)n(C)c(=O)n2C")
104
>>> reported_measurement("Cc1cc(=O)n(C)c2cc(N3C(=O)CC[C@H](NS(=O)(=O)CC(C)C)[C@H]3c3ccc(Cl)cc3)ccc12")
100
>>> reported_measurement("COc1ccccc1S(=O)(=O)Nc1ccc2c(c1)CN(C)C(=O)N2")
86
>>> reported_measurement("COc1cc2c(cc1NS(=O)(=O)c1ccc(Br)cc1C)n(C)c(=O)n2C")
102

###

# study system: GLP (Homo sapiens, UniProt Q9H9B1)
# Construct: purchased DiscoverX BROMOscan (bromodomains); SGC in-house methyltransferase panel
# Sequence (Q9H9B1 1-1298): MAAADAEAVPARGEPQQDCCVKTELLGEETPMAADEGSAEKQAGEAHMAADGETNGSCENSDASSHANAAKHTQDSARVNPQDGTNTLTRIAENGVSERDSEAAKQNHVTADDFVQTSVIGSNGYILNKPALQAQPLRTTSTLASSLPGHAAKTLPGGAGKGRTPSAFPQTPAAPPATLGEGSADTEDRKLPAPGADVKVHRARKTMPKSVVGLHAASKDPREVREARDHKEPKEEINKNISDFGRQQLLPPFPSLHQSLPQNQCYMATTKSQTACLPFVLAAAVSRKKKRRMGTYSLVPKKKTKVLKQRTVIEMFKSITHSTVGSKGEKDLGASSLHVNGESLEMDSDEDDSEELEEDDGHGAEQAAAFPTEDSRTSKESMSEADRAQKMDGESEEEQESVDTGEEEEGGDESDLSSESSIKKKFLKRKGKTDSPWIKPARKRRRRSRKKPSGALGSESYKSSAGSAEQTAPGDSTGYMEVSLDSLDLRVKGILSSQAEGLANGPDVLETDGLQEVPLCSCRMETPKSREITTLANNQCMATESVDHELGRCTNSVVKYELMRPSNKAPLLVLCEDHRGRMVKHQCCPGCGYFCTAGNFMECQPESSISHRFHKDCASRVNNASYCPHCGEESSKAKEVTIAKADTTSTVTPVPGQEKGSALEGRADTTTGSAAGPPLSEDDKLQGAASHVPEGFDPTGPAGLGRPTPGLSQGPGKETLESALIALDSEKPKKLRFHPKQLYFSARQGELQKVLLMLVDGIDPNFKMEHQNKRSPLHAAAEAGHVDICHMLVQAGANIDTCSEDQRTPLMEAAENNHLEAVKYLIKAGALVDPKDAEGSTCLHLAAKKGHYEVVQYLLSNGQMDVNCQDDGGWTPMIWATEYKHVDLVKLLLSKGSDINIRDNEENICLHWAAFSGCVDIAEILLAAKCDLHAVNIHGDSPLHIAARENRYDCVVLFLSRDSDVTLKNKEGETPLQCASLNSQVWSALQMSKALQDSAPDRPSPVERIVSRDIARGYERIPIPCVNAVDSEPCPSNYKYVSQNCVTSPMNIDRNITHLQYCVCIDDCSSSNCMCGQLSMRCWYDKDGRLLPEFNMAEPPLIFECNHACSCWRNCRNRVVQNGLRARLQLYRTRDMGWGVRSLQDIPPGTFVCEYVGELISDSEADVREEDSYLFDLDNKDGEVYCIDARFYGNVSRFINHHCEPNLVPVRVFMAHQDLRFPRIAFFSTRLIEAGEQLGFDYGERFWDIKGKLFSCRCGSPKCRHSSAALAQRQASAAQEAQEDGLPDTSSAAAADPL
# assay procedure: Methyl transferase scintillation proximity assay
# Format: biochemical
# measurement context: average of two measurements, read-out: MTases Inhibition (%)
experimental readout: inhibition at 10 µM (%)

>>> reported_measurement("CO[C@H]1CNC[C@@H](OCC2CCC(F)(F)CC2)[C@@H]1Nc1ncc(-c2cncc(C)c2)c2cc(C)c(=O)[nH]c12")
2
>>> reported_measurement("Cc1nnc2c3ccccc3c(N[C@@H](C)[C@H](c3ccccc3)N(C)C)nn12")
2
>>> reported_measurement("Cc1c(NC(=O)c2cc(C(N)=O)nc3cc(F)ccc23)c(C(F)(F)F)nn1Cc1ccc(C#N)cc1")
0
>>> reported_measurement("CN(C)CCCOc1ccc(-c2cc(NCCCn3cccn3)nc(S(C)(=O)=O)n2)cc1")
1
>>> reported_measurement("COc1cc(Cl)c(C(=O)N[C@@H](CN[C@H]2CC[C@@H](N)CC2)Cc2ccc(C#N)cc2)cc1-c1ccc(CN[C@H](C)c2ccc(C)cc2)o1")
2
>>> reported_measurement("Cc1c(NC(=O)c2cc(C(N)=O)nc3cc(F)ccc23)c(C(F)(F)F)nn1Cc1ccc(C(C)(C)C)cc1")
2
>>> reported_measurement("CN1C[C@H](Nc2cnn(C)c(=O)c2Br)C[C@H](c2ccccc2)C1")
2

###

# study system: TRIM33(PHD,BRD) (Homo sapiens, UniProt Q9UPN9)
# Sequence (Q9UPN9 882-1087 limits assumed): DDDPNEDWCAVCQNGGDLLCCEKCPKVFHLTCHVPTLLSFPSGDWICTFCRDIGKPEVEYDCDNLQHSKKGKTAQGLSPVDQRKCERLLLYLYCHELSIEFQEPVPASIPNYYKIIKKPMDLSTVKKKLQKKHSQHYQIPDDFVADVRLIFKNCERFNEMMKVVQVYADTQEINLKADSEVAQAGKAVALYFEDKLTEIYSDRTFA
# assay procedure: BROMOscan ligand-binding assay
# measurement context: KD, TRIM33(PHD,Bromo.)
pKd: −log10 of the molar value.
experimental readout: pKd

>>> reported_measurement("O=C(C=CN1CC2CC1CN2c1ccccn1)c1ccccc1O (stereo not drawn)")
"< 4.00"
>>> reported_measurement("O=C(O)c1ccccc1O")
"< 1.85"
>>> reported_measurement("CCC(=O)N1CCOc2c(cc(-c3ccc(OC)c(OC)c3)cc2OCC2CCCN(C)C2)C1 (stereo not drawn)")
"< 4.00"

###

Below, each entry is listed alongside its reported inhibition at 10 µM.
# study system: PRMT5 (Homo sapiens, UniProt O14744)
# Construct: purchased DiscoverX BROMOscan (bromodomains); SGC in-house methyltransferase panel
# Sequence (O14744 whole entry): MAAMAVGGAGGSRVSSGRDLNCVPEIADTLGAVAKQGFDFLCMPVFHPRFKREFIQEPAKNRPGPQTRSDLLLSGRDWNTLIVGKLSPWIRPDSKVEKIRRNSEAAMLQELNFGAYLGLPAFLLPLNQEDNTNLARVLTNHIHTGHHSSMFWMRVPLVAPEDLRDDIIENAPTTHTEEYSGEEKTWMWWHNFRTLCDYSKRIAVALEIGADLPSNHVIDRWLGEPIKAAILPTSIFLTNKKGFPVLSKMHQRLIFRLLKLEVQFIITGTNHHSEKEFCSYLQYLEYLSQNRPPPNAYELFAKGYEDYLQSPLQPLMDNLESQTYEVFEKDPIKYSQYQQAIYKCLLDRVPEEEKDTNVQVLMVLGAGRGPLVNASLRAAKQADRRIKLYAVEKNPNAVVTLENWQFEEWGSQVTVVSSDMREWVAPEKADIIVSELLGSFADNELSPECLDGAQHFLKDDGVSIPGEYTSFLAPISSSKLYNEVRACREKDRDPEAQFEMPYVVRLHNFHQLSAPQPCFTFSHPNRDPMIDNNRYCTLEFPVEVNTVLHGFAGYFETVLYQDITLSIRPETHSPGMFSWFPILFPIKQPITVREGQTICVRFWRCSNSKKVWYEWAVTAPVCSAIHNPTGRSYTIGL
# Sequence (Q9BQA1 whole entry partner): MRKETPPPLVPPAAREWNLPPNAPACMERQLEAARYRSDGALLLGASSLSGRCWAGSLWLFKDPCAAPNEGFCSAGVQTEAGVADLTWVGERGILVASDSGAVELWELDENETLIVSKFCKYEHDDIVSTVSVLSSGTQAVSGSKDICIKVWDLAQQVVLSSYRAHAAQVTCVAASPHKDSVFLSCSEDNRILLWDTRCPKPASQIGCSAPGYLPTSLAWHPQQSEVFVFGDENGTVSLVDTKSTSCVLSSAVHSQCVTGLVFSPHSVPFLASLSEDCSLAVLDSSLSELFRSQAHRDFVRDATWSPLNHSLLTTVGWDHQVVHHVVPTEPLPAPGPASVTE
# assay procedure: Methyl transferase scintillation proximity assay
# Format: biochemical
# measurement context: average of two measurements, read-out: MTases Inhibition (%)
experimental readout: inhibition at 10 µM (%)

>>> reported_measurement("COc1cc(Cl)c(C(=O)N[C@@H](CN[C@H]2CC[C@@H](N)CC2)Cc2ccc(C#N)cc2)cc1-c1ccc(CN[C@H](C)c2ccc(C)cc2)o1 [BAY-850]")
4
>>> reported_measurement("Cc1nnc2c3ccccc3c(N[C@@H](C)[C@H](c3ccccc3)N(C)C)nn12 [L-Moses]")
-3
>>> reported_measurement("Cc1c(NC(=O)c2cc(C(N)=O)nc3cc(F)ccc23)c(C(F)(F)F)nn1Cc1ccc(C#N)cc1 [BAY-876]")
-1
>>> reported_measurement("CN(C)CCCOc1ccc(-c2cc(NCCCn3cccn3)nc(S(C)(=O)=O)n2)cc1 [TP-238]")
-12
>>> reported_measurement("CO[C@H]1CNC[C@@H](OCC2CCC(F)(F)CC2)[C@@H]1Nc1ncc(-c2cncc(C)c2)c2cc(C)c(=O)[nH]c12 [GSK8814]")
-2
>>> reported_measurement("CN1C[C@H](Nc2cnn(C)c(=O)c2Br)C[C@H](c2ccccc2)C1 [GSK4027]")
8
>>> reported_measurement("Cc1c(NC(=O)c2cc(C(N)=O)nc3cc(F)ccc23)c(C(F)(F)F)nn1Cc1ccc(C(C)(C)C)cc1 [BAY-588]")
4
